METHOD_NOTES: Acute Toxicity
CONDITION_PARAMETERS: mouse, in vivo; ddY male mice
ASSAY_ENDPOINT: LD50 (mg/kg)
Report the figure in mg/kg without appending any unit label.

| COMPOUND | DATA_VALUE |
| --- | --- |
| O=S(=O)(c1cccc2cnccc12)N1CCNCC(Cc2ccccc2)C1 (centres unmarked) | 197 |

Shifting focus to the compound that follows.
Entry `O=S(=O)(c1cccc2cnccc12)N1CCCNCC1` — recorded LD50 = 73.5

---

METHOD_NOTES: Acute Toxicity
CONDITION_PARAMETERS: mouse, in vivo; ddY male mice
Rule for this label: t means LD50 is less than 100 mg/kg; f means LD50 is at least 100 mg/kg.

A selection of reference data follows.
| COMPOUND | LABEL_VALUE |
| --- | --- |
| N=C(N)NCCNS(=O)(=O)c1cccc2c(O)nccc12 | f |
| O=S(=O)(c1cccc2c(O)nccc12)N1CCCNCC1 | f |
| N=C(N)NCCNS(=O)(=O)c1cccc2c(Cl)nccc12 | f |
| CC1CN(S(=O)(=O)c2cccc3cnccc23)CCCN1 (stereo not drawn) | f |
| O=S(=O)(c1cccc2cnccc12)N1CCNCC1 [compound 2, reference compound] | t |

For the next question, use this compound.
Is the reported LD50 for N=C(N)NCCNS(=O)(=O)c1cccc2cnccc12 [compound 4, reference compound] strictly below 100 mg/kg? t
